Assignment: determine reported Papp B→A at 2 h, 50 µM for the given compounds.
- measurementNotes: Apparent permeability from basolateral to apical side in human Caco2 cells at 50 uM over 2 hrs by isocratic reverse phase HPLC method
- Type: ADME, cell-based
- recordedConditions: Caco-2
Respond numerically; units are ×10⁻⁶ cm/s and should not be typed.

Q: Need Papp B→A at 2 h, 50 µM of `O=C1/C(=C/c2ccccc2F)CNC/C1=C\c1ccccc1F` , thanks.
Result: 0.6

Q: Next record, please: `CCOC(=O)c1ccc(/C=C2\CNC/C(=C\c3ccc(C(=O)OCC)cc3)C2=O)cc1`
Result: 0.99

Q: Next record, please: `CN(C)c1ccc(/C=C/C(=O)/C=C/c2ccc(N(C)C)cc2)cc1`
Result: 7.02

Q: Next record, please: `COc1ccc(/C=C2\CNC/C(=C\c3ccc(OC)c(OC)c3)C2=O)cc1OC`
Result: 4.12

Q: Next record, please: `COc1ccccc1/C=C1\CNC/C(=C\c2ccccc2OC)C1=O`
Result: 10.4

Q: Next record, please: `O=C(/C=C/c1ccccc1)c1ccccc1`
Result: 1.05

Q: Next record, please: `CCOP(=O)(OCC)N1C/C(=C\c2ccc(OC)c(OC)c2)C(=O)/C(=C/c2ccc(OC)c(OC)c2)C1`
Result: 8.17

Q: Next record, please: `COc1cccc(/C=C2\CNC/C(=C\c3cccc(OC)c3OC)C2=O)c1OC`
Result: 7.22

Q: Next record, please: `O=C1/C(=C/c2cccc(O)c2)CNC/C1=C\c1cccc(O)c1`
Result: 5.83

Q: Next record, please: `CCOP(=O)(OCC)N1C/C(=C\c2cc(OC)c(OC)c(OC)c2)C(=O)/C(=C/c2cc(OC)c(OC)c(OC)c2)C1`
Result: 8.82
